A collection of compounds and their measured Ratio (β/δ)
- system: PI3Kβ (p110β/p85α) (Homo sapiens (Human))
- method description: cell-free PI3K HTRF assay, PI3Kβ
- Assay type: biochemical
- test settings: ratio of IC50 against PI3Kβ related to PI3Kδ; 10-dose, 3-fold serial dilution starting at 10 μM

-- ask Provide PI3Kβ (p110β/p85α) (Homo sapiens (Human)) Ratio (β/δ) reading for N#Cc1c(N)nc(N)nc1N1CCCC1c1cc2ccc(F)cc2nc1-c1ccccc1 (stereo not drawn) .
-- reply >2185

-- ask Provide PI3Kβ (p110β/p85α) (Homo sapiens (Human)) Ratio (β/δ) reading for N#Cc1c(N)ncnc1N1CC=CCC1c1cc2ccc(F)cc2nc1-c1ccccc1 (stereo not drawn) .
-- reply >181

# evaluate next
-- ask Provide PI3Kβ (p110β/p85α) (Homo sapiens (Human)) Ratio (β/δ) reading for N#Cc1c(N)nc(N)nc1N1CCC[C@H]1c1cc2cccc(Cl)c2nc1-c1ccccc1 .
-- reply >106

----------
- system: PI3Kβ (p110β/p85α) (Homo sapiens (Human), UniProt P42338)
- Sequence (P42338 whole entry, one chain of several): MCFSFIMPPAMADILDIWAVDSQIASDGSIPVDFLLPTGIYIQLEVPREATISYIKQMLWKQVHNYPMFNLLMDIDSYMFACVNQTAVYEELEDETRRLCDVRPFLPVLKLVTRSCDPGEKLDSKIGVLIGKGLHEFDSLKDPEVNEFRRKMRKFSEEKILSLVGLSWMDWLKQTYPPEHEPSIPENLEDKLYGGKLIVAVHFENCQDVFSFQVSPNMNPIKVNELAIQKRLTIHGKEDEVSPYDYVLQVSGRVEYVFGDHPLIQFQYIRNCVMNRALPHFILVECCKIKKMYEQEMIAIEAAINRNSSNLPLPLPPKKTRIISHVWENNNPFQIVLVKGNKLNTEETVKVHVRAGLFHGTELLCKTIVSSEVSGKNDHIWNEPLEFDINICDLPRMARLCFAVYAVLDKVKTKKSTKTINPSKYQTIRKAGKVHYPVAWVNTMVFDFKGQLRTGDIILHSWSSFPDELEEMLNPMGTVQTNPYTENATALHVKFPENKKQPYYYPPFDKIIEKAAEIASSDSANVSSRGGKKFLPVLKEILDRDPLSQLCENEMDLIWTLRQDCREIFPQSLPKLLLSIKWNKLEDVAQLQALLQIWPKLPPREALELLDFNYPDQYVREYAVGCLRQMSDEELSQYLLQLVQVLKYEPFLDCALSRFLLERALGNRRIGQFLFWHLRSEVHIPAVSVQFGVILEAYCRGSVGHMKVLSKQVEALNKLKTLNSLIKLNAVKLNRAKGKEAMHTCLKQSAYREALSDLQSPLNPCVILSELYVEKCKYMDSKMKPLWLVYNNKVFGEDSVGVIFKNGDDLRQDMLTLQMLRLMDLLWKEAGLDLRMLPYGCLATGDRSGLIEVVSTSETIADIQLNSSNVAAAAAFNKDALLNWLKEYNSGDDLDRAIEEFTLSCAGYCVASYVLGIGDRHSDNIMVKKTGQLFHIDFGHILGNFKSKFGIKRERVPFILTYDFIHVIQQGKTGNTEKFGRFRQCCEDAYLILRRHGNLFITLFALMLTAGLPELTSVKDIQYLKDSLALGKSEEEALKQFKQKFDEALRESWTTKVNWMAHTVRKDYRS
- method description: cell-free PI3K HTRF assay, PI3Kβ
- Format: biochemical
- test settings: ratio of IC50 against PI3Kβ related to PI3Kδ; 10-dose, 3-fold serial dilution starting at 10 μM
A collection of molecules and their measured Ratio (β/δ)

Guide cases for Ratio (β/δ), answers given:
-- ask Supply reported Ratio (β/δ) belonging to this molecule: Cc1cccc2cc([C@@H]3CCCN3c3ncnc(N)c3C#N)c(N3CCOCC3)nc12
-- reply >789

-- ask Supply reported Ratio (β/δ) belonging to this molecule: Fc1ccc2cc(C3CC=CCN3c3ncnc4[nH]cnc34)c(-c3ccccc3)nc2c1 (stereo not drawn)
-- reply >97

# evaluate next
-- ask Supply reported Ratio (β/δ) belonging to this molecule: Cc1cccc2cc([C@@H]3CCCN3c3nc(N)nc(N)c3C#N)c(-c3ccccc3)nc12
-- reply >1120

----------
A collection of compounds and their measured Ratio (γ/δ)
- system: PI3Kγ (p110γ) (Homo sapiens (Human))
- Sequence (P48736 whole entry): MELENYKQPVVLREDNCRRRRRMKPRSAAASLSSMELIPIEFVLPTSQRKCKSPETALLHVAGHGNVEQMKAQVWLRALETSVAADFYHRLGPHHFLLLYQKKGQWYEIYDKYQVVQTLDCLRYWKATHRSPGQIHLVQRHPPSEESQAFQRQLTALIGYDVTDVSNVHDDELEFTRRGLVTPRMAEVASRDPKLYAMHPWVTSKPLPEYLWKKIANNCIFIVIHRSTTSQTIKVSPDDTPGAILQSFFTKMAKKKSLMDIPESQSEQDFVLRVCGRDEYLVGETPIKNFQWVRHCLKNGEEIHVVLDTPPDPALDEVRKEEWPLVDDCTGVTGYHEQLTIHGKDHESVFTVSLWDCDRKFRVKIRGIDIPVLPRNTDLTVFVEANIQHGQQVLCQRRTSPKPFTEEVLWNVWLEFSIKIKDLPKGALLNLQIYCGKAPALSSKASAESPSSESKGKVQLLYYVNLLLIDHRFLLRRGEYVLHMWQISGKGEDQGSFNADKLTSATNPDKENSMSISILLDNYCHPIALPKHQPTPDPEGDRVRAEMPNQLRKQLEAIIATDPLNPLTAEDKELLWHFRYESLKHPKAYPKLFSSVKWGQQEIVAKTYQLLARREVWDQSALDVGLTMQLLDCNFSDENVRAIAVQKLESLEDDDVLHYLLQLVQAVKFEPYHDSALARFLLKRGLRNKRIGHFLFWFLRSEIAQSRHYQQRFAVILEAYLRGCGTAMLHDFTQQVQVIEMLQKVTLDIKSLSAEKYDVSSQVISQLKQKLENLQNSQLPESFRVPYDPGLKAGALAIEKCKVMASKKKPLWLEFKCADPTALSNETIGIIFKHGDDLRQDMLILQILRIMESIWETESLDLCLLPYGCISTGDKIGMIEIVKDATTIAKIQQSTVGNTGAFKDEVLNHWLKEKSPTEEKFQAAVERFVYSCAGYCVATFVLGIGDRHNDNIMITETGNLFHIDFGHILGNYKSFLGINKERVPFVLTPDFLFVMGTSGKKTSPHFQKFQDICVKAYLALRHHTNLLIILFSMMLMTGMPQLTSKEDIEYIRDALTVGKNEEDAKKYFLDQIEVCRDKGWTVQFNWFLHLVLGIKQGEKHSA
- method description: cell-free PI3K HTRF assay, PI3Kγ
- Format: biochemical
- test settings: ratio of IC50 against PI3Kγ related to PI3Kδ; 10-dose, 3-fold serial dilution starting at 10 μM
Kindly provide the number alone.

Guide cases for Ratio (γ/δ), answers given:
-- ask Supply reported Ratio (γ/δ) belonging to this compound: Fc1ccc2cc(C3CCCN3c3ncnc4[nH]cnc34)c(-c3cccc(OC(F)(F)F)c3)nc2c1 (stereo not shown)
-- reply 12

-- ask Supply reported Ratio (γ/δ) belonging to this compound: N#Cc1c(N)ncnc1N1CCCC1c1cc2ccc(F)cc2nc1N1CCOCC1 (stereo not shown)
-- reply 111

-- ask Supply reported Ratio (γ/δ) belonging to this compound: COc1cccc(-c2nc3cc(F)ccc3cc2C2CCCN2c2ncnc3[nH]cnc23)c1 (stereo not shown)
-- reply 50

-- ask Supply reported Ratio (γ/δ) belonging to this compound: Fc1ccc2cc(C3CCCN3c3ncnc4[nH]cnc34)c(N3CCCCC3)nc2c1 (stereo not shown)
-- reply 145

-- ask Supply reported Ratio (γ/δ) belonging to this compound: Cc1cccc2cc([C@@H]3CCCN3c3ncnc4[nH]cnc34)c(N3CCOCC3)nc12
-- reply 48

# evaluate next
-- ask Supply reported Ratio (γ/δ) belonging to this compound: Fc1ccc2cc(C3CCCN3c3ncnc4[nH]cnc34)c(-c3ccncc3)nc2c1 (stereo not shown)
-- reply 3.3

----------
- system: PI3Kδ (p110δ/p85α) (Homo sapiens (Human), UniProt O00329)
- Sequence (O00329 whole entry): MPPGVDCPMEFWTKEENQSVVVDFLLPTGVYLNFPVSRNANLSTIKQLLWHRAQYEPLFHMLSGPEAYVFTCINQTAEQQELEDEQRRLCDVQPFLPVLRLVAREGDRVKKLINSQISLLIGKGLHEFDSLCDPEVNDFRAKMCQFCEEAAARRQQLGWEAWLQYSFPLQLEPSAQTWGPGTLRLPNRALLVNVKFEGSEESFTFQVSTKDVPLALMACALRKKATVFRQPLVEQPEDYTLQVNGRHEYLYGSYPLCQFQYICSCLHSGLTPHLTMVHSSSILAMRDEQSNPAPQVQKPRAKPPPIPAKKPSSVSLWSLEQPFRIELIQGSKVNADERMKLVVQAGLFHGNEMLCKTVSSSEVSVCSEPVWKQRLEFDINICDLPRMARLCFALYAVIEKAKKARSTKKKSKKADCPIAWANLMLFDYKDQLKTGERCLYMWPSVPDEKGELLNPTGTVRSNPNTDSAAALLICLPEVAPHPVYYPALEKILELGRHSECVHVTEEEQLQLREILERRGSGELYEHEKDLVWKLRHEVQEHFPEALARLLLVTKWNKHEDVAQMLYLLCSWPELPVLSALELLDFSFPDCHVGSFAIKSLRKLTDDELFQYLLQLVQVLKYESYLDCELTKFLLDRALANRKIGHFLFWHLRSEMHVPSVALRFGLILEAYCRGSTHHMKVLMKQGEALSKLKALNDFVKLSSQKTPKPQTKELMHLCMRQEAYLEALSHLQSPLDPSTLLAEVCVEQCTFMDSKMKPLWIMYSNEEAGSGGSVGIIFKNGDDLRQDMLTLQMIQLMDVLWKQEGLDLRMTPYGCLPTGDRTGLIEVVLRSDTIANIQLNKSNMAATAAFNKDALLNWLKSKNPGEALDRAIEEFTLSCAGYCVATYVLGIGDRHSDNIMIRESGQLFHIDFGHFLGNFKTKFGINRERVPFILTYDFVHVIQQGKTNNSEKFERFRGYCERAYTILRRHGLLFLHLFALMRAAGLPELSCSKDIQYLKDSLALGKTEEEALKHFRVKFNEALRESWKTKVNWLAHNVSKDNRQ
- Sequence (P27986 whole entry partner): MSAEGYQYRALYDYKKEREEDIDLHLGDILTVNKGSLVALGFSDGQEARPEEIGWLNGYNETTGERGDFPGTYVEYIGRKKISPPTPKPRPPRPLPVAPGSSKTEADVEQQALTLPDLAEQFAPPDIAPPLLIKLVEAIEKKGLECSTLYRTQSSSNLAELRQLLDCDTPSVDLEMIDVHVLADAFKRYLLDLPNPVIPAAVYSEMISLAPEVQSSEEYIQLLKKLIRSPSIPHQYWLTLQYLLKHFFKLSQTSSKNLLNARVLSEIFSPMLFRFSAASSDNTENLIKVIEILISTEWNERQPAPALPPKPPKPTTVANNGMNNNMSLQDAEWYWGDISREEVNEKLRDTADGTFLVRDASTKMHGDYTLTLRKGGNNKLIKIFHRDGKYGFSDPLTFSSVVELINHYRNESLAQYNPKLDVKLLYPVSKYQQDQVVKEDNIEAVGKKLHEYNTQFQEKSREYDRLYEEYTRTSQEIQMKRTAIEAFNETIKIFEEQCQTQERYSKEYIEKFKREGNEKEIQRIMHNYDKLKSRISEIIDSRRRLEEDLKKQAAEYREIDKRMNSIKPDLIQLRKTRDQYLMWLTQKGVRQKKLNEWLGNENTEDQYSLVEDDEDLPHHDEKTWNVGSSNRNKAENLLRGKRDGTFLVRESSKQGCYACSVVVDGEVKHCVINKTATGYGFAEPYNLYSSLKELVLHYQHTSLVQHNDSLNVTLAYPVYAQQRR
- method description: cell-free PI3K HTRF assay, PI3Kδ
- test settings: 10-dose IC50 mode, 3-fold serial dilution starting at 1 μM; ATP 10 μM; read-out: IC50 value for the inhibition of PI3Kδ
A collection of molecules and their measured IC50

-- ask Supply reported IC50 belonging to this molecule: Cc1cccc2cc([C@@H]3CCCN3c3nc(N)nc(N)c3C#N)c(-c3ccccc3)nc12 [Compound 54]
-- reply < 0.05 nM

Continuing:
-- ask Supply reported IC50 belonging to this molecule: Fc1ccc2cc(C3CCCCCN3c3ncnc4[nH]cnc34)c(-c3ccccc3)nc2c1 (stereo not shown) [Compound 45]
-- reply > 1000 nM

-- ask Supply reported IC50 belonging to this molecule: Cn1c(=O)n(C)c2c(N3CCCC3c3cc4ccc(F)cc4nc3-c3ccccn3)ncnc21 (stereo not shown) [Compound 13]
-- reply > 1000 nM

-- ask Supply reported IC50 belonging to this molecule: N#Cc1c(N)ncnc1N1CCC[C@H]1c1cc2cccc(Cl)c2nc1N1CCOCC1 [Compound 69]
-- reply < 0.05 nM
